Field: cAMP production with saturated glucagon peptide; test compound 10 nM. Provide a value for each of the binders that follow.
# TESTED_TARGET: Human glucagon receptor (human, UniProt P47871 26-477)
# EXPERIMENT_DESCRIPTION: cell-based or functional assay
Where no end group is shown, it is not given here. [ ]: non-standard residue; d: D form. αMePhe(2-F) = C[C@](N)(Cc1ccccc1F)C(=O)O
Respond numerically; units are pmol/ml/µg prt and should not be typed.

Lab note: HSQGTXTSDXX (α-Me-2F-Phe at 6; Bip(OMe) at 10; Bip(2CF3) at 11) [Seq. ID. No. 24: HSQGT-(α-Me-2F-Phe)-TSD-Bip(OMe)-Bip(2CF3)] gave cAMP production with saturated glucagon peptide; test compound 10 nM of 2

Short answer for HSQGTXTSDXX (α-Me-2F-Phe at 6; Bip(OMe) at 10; Bip(2Me) at 11) [Seq. ID. No. 21: HSQGT-(α-Me-2F-Phe)-TSD-Bip(OMe)-Bip(2Me)] : cAMP production with saturated glucagon peptide; test compound 10 nM was 17

For reference, reported cAMP production with saturated glucagon peptide; test compound 10 nM for HAQGTFTSD[Bip(OMe)][Bip(2F)] [Seq. ID. No. 11: HAQGTFTSD-Bip(OMe)-Bip(2F)] stands at 8

Short answer for HAQGT[αMePhe(2-F)]TSD[Bip(OMe)][Bip(2CF3)] [Seq. ID. No. 28: HAQGT-(α-Me-2F-Phe)-TSD-Bip(OMe)-Bip(2CF3)] : cAMP production with saturated glucagon peptide; test compound 10 nM was 3
